biological target: mMC1R (Mus musculus); assay: cAMP AlphaScreen agonist assay, HEK293 cells stably expressing mouse MC1R; settings: relative to MDE5-149-2c
Sequence (Q01727 whole entry): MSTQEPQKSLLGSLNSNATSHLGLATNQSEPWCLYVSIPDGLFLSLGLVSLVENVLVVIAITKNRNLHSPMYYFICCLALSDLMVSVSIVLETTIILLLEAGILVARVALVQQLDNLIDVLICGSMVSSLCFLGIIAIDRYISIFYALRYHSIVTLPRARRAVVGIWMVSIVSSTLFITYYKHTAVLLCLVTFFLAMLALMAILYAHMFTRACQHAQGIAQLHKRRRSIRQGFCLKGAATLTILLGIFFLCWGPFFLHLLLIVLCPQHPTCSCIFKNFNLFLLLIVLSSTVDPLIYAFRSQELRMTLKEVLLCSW
Non-standard residues stand in square brackets, D forms with d. Residues, ends and D or L forms follow the SMILES beside them. Dap = NC[C@H](N)C(=O)O
reported.endpoint: decreased agonist potency at mMC1R relative to MDE5-149-2c (fold)
Numbers only, in fold.

compound	unit.text	numeric.result
C[C@@H]1NC(=O)[C@H](CC(N)=O)NC(=O)[C@H](Cc2c[nH]c3ccccc23)NC(=O)[C@H](CCCNC(=N)N)NC(=O)[C@@H](Cc2ccccc2)NC(=O)[C@@H]2CCCN2C(=O)[C@H]2CCCN2C(=O)[C@H](Cc2ccccc2)NC1=O [MDE5-149-1c, c[Pro-DPhe-Arg-Trp-Asn-Ala-Phe-DPro]] (cyclo(P[dF]RWNAF[dP]))	fold	1140
C[C@@H]1NC(=O)[C@H](CN)NC(=O)[C@H](Cc2c[nH]c3ccccc23)NC(=O)[C@H](CCCNC(=N)N)NC(=O)[C@@H](Cc2ccccc2)NC(=O)[C@H](Cc2c[nH]cn2)NC(=O)[C@@H]2CCCN2C(=O)[C@H]2CCCN2C(=O)[C@H](Cc2ccccc2)NC1=O [MDE5-151-2c, c[Pro-His-DPhe-Arg-Trp-Dap-Ala-Phe-DPro]] (cyclo(PH[dF]RW[Dap]AF[dP]))	fold	70
N=C(N)NCCC[C@@H]1NC(=O)[C@@H](Cc2ccccc2)NC(=O)[C@H](Cc2c[nH]cn2)NC(=O)[C@@H]2CCCN2C(=O)[C@H]2CCCN2C(=O)[C@H](CC(N)=O)NC(=O)[C@H](Cc2c[nH]c3ccccc23)NC1=O [MDE6-10-2c, c[Pro-His-DPhe-Arg-Trp-Asn-DPro]] (cyclo(PH[dF]RWN[dP]))	fold	143

Consider now this further compound.
Please report the measured decreased agonist potency at mMC1R relative to MDE5-149-2c for C[C@@H]1NC(=O)[C@H](CC(N)=O)NC(=O)[C@H](Cc2c[nH]c3ccccc23)NC(=O)[C@H](CCCNC(=N)N)NC(=O)[C@@H](Cc2ccccc2)NC(=O)[C@H](Cc2c[nH]cn2)NC(=O)[C@@H]2CCCN2C(=O)[C@H]2CCCN2C1=O [MDE6-3-2c, c[Pro-His-DPhe-Arg-Trp-Asn-Ala-DPro]] (cyclo(PH[dF]RWNA[dP]))
34

###

target: UniProt P41149; assay: cAMP AlphaScreen agonist assay, HEK293 cells stably expressing mouse MC5R; settings: read-out: mMC5R EC50; agonist, cAMP
Sequence (P41149 whole entry): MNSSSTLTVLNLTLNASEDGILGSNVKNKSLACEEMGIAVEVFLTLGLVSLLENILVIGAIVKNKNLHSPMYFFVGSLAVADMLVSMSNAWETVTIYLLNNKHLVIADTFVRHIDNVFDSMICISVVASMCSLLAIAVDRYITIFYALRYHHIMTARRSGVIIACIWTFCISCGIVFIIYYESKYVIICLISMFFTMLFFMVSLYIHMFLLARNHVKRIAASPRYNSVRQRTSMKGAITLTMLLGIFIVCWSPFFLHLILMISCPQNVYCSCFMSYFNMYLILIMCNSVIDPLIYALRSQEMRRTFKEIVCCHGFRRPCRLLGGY
Non-standard residues stand in square brackets, D forms with d. Residues, ends and D or L forms follow the SMILES beside them. Dap = NC[C@H](N)C(=O)O
reported.endpoint: pEC50
One number for each entry, as −log10 of the molar value.

compound	reported.endpoint	numeric.result
C[C@@H]1NC(=O)[C@H](CN)NC(=O)[C@H](Cc2c[nH]c3ccccc23)NC(=O)[C@H](CCCNC(=N)N)NC(=O)[C@@H](Cc2ccccc2)NC(=O)[C@H](Cc2c[nH]cn2)NC(=O)[C@@H]2CCCN2C(=O)[C@H]2CCCN2C(=O)[C@H](Cc2ccccc2)NC1=O [MDE5-151-2c, c[Pro-His-DPhe-Arg-Trp-Dap-Ala-Phe-DPro]] (cyclo(PH[dF]RW[Dap]AF[dP]))	pEC50	7.74
C[C@@H]1NC(=O)[C@H](CN)NC(=O)[C@H](Cc2c[nH]c3ccccc23)NC(=O)[C@H](CCCNC(=N)N)NC(=O)[C@@H](Cc2ccccc2)NC(=O)[C@@H]2CCCN2C(=O)[C@H]2CCCN2C(=O)[C@H](Cc2ccccc2)NC1=O [MDE5-151-1c, c[Pro-DPhe-Arg-Trp-Dap-Ala-Phe-DPro]] (cyclo(P[dF]RW[Dap]AF[dP]))	pEC50	7.34

Consider now this further compound.
Please report the measured pEC50 for C[C@@H]1NC(=O)[C@H](CC(N)=O)NC(=O)[C@H](Cc2c[nH]c3ccccc23)NC(=O)[C@H](CCCNC(=N)N)NC(=O)[C@@H](Cc2ccccc2)NC(=O)[C@@H]2CCCN2C(=O)[C@H]2CCCN2C(=O)[C@H](Cc2ccccc2)NC1=O [MDE5-149-1c, c[Pro-DPhe-Arg-Trp-Asn-Ala-Phe-DPro]] (cyclo(P[dF]RWNAF[dP]))
7.40

###

biological target: mMC3R (Mus musculus); experiment: cAMP AlphaScreen agonist assay, HEK293 cells stably expressing mouse MC3R; details: read-out: mMC3R EC50; agonist, cAMP
Sequence (P33033 whole entry): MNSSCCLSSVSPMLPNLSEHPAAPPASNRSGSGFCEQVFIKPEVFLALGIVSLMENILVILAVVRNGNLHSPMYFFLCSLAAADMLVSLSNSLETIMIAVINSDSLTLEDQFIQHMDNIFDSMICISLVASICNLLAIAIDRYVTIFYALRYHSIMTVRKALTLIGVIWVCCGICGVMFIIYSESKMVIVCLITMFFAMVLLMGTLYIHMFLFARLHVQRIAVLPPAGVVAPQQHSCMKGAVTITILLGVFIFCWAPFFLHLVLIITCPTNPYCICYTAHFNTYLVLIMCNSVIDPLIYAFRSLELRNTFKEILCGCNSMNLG
Non-standard residues stand in square brackets, D forms with d. Residues, ends and D or L forms follow the SMILES beside them. Dap = NC[C@H](N)C(=O)O
Answer each item with its documented EC50.
One number for each entry, in nM.

For each of the items listed, what is its EC50?
1. C[C@@H]1NC(=O)[C@H](CC(N)=O)NC(=O)[C@H](Cc2c[nH]c3ccccc23)NC(=O)[C@H](CCCNC(=N)N)NC(=O)[C@@H](Cc2ccccc2)NC(=O)[C@H](Cc2c[nH]cn2)NC(=O)[C@@H]2CCCN2C(=O)[C@H]2CCCN2C1=O [MDE6-3-2c, c[Pro-His-DPhe-Arg-Trp-Asn-Ala-DPro]] (cyclo(PH[dF]RWNA[dP]))
2. C[C@@H]1NC(=O)[C@H](CN)NC(=O)[C@H](Cc2c[nH]c3ccccc23)NC(=O)[C@H](CCCNC(=N)N)NC(=O)[C@@H](Cc2ccccc2)NC(=O)[C@@H]2CCCN2C(=O)[C@H]2CCCN2C(=O)[C@H](Cc2ccccc2)NC1=O [MDE5-151-1c, c[Pro-DPhe-Arg-Trp-Dap-Ala-Phe-DPro]] (cyclo(P[dF]RW[Dap]AF[dP]))
3. C[C@@H]1NC(=O)[C@H](CN)NC(=O)[C@H](Cc2c[nH]c3ccccc23)NC(=O)[C@H](CCCNC(=N)N)NC(=O)[C@@H](Cc2ccccc2)NC(=O)[C@H](Cc2cnc[nH]2)NC(=O)[C@@H]2CCCN2C(=O)[C@H]2CCCN2C1=O [MDE6-5-2c, c[Pro-His-DPhe-Arg-Trp-Dap-Ala-DPro]] (cyclo(H[dF]RW[Dap]A[dP]P))

1. 300
2. 3000
3. 40

###

Answer each item with its documented EC50.
target: mMC3R (Mus musculus); test: cAMP AlphaScreen agonist assay, HEK293 cells stably expressing mouse MC3R; conditions: read-out: mMC3R EC50; agonist, cAMP
Non-standard residues stand in square brackets, D forms with d. Residues, ends and D or L forms follow the SMILES beside them. Dap = NC[C@H](N)C(=O)O
Numbers only, in nM.

Here is how some compounds turned out for EC50.
compound	unit.text	EC50
C[C@@H]1NC(=O)[C@H](CC(N)=O)NC(=O)[C@H](Cc2c[nH]c3ccccc23)NC(=O)[C@H](CCCNC(=N)N)NC(=O)[C@@H](Cc2ccccc2)NC(=O)[C@H](Cc2cnc[nH]2)NC(=O)[C@@H]2CCCN2C(=O)[C@H]2CCCN2C(=O)[C@H](Cc2ccccc2)NC1=O [MDE5-149-2c, c[Pro-His-DPhe-Arg-Trp-Asn-Ala-Phe-DPro]] (cyclo(H[dF]RWNAF[dP]P))	nM	32
N=C(N)NCCC[C@@H]1NC(=O)[C@@H](Cc2ccccc2)NC(=O)[C@H](Cc2c[nH]cn2)NC(=O)[C@@H]2CCCN2C(=O)[C@H]2CCCN2C(=O)[C@H](CC(N)=O)NC(=O)[C@H](Cc2c[nH]c3ccccc23)NC1=O [MDE6-10-2c, c[Pro-His-DPhe-Arg-Trp-Asn-DPro]] (cyclo(PH[dF]RWN[dP]))	nM	510

Consider now this further compound.
Please report the measured EC50 for C[C@@H]1NC(=O)[C@H](CN)NC(=O)[C@H](Cc2c[nH]c3ccccc23)NC(=O)[C@H](CCCNC(=N)N)NC(=O)[C@@H](Cc2ccccc2)NC(=O)[C@H](Cc2c[nH]cn2)NC(=O)[C@@H]2CCCN2C(=O)[C@H]2CCCN2C(=O)[C@H](Cc2ccccc2)NC1=O [MDE5-151-2c, c[Pro-His-DPhe-Arg-Trp-Dap-Ala-Phe-DPro]] (cyclo(PH[dF]RW[Dap]AF[dP]))
260

###

target: mMC4R (Mus musculus, UniProt P56450); assay: cAMP AlphaScreen agonist assay, HEK293 cells stably expressing mouse MC4R; conditions: read-out: mMC4R EC50; agonist, cAMP
Sequence (P56450 whole entry): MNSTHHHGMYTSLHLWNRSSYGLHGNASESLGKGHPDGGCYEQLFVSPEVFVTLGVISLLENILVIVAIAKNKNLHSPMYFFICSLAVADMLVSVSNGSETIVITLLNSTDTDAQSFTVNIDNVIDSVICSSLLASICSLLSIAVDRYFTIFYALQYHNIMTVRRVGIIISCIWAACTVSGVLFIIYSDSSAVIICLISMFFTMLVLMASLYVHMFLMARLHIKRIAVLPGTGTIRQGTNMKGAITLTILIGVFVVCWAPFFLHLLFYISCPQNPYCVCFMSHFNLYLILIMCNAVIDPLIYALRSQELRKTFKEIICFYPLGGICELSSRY
Non-standard residues stand in square brackets, D forms with d. Residues, ends and D or L forms follow the SMILES beside them. Dap = NC[C@H](N)C(=O)O
Answer each item with its documented pEC50.
Numbers only, as −log10 of the molar value.

molecule	pEC50
C[C@@H]1NC(=O)[C@H](CN)NC(=O)[C@H](Cc2c[nH]c3ccccc23)NC(=O)[C@H](CCCNC(=N)N)NC(=O)[C@@H](Cc2ccccc2)NC(=O)[C@H](Cc2c[nH]cn2)NC(=O)[C@@H]2CCCN2C(=O)[C@H]2CCCN2C(=O)[C@H](Cc2ccccc2)NC1=O [MDE5-151-2c, c[Pro-His-DPhe-Arg-Trp-Dap-Ala-Phe-DPro]] (cyclo(PH[dF]RW[Dap]AF[dP]))	7.64
C[C@@H]1NC(=O)[C@H](CN)NC(=O)[C@H](Cc2c[nH]c3ccccc23)NC(=O)[C@H](CCCNC(=N)N)NC(=O)[C@@H](Cc2ccccc2)NC(=O)[C@@H]2CCCN2C(=O)[C@H]2CCCN2C1=O [MDE6-5-1c, c[Pro-DPhe-Arg-Trp-Dap-Ala-DPro]] (cyclo(P[dF]RW[Dap]A[dP]))	6.82
C[C@@H]1NC(=O)[C@H](CN)NC(=O)[C@H](Cc2c[nH]c3ccccc23)NC(=O)[C@H](CCCNC(=N)N)NC(=O)[C@@H](Cc2ccccc2)NC(=O)[C@H](Cc2cnc[nH]2)NC(=O)[C@@H]2CCCN2C(=O)[C@H]2CCCN2C1=O [MDE6-5-2c, c[Pro-His-DPhe-Arg-Trp-Dap-Ala-DPro]] (cyclo(H[dF]RW[Dap]A[dP]P))	8.80
C[C@@H]1NC(=O)[C@H](CN)NC(=O)[C@H](Cc2c[nH]c3ccccc23)NC(=O)[C@H](CCCNC(=N)N)NC(=O)[C@@H](Cc2ccccc2)NC(=O)[C@@H]2CCCN2C(=O)[C@H]2CCCN2C(=O)[C@H](Cc2ccccc2)NC1=O [MDE5-151-1c, c[Pro-DPhe-Arg-Trp-Dap-Ala-Phe-DPro]] (cyclo(P[dF]RW[Dap]AF[dP]))	7.00

For each of the items listed, what is its pEC50?
1. C[C@@H]1NC(=O)[C@H](CC(N)=O)NC(=O)[C@H](Cc2c[nH]c3ccccc23)NC(=O)[C@H](CCCNC(=N)N)NC(=O)[C@@H](Cc2ccccc2)NC(=O)[C@@H]2CCCN2C(=O)[C@H]2CCCN2C(=O)[C@H](Cc2ccccc2)NC1=O [MDE5-149-1c, c[Pro-DPhe-Arg-Trp-Asn-Ala-Phe-DPro]] (cyclo(P[dF]RWNAF[dP]))
2. N=C(N)NCCC[C@@H]1NC(=O)[C@@H](Cc2ccccc2)NC(=O)[C@@H]2CCCN2C(=O)[C@H]2CCCN2C(=O)[C@H](CC(N)=O)NC(=O)[C@H](Cc2c[nH]c3ccccc23)NC1=O [MDE6-10-1c, c[Pro-DPhe-Arg-Trp-Asn-DPro]] (cyclo(P[dF]RWN[dP]))
3. C[C@@H]1NC(=O)[C@H](CC(N)=O)NC(=O)[C@H](Cc2c[nH]c3ccccc23)NC(=O)[C@H](CCCNC(=N)N)NC(=O)[C@@H](Cc2ccccc2)NC(=O)[C@H](Cc2cnc[nH]2)NC(=O)[C@@H]2CCCN2C(=O)[C@H]2CCCN2C(=O)[C@H](Cc2ccccc2)NC1=O [MDE5-149-2c, c[Pro-His-DPhe-Arg-Trp-Asn-Ala-Phe-DPro]] (cyclo(H[dF]RWNAF[dP]P))

1. 6.89
2. 5.96
3. 8.85
